Items are presented alongside their recorded OD450.
Biological target: T1, human MSLN-R1-his protein (human, UniProt Q13421 296-390)
T1 construct: also called hMSLN-R1-his; human MSLN-R1 protein; not shown: His tag
T1 chain: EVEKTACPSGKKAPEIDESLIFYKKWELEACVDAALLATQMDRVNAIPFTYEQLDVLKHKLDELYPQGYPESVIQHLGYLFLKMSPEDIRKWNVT
Assay: ELISA, coated antigen; no antibody (blank, column 'none')

Here is how some binders turned out for OD450.
S009-F1.57.1 human-murine chimeric antibody (antibody, human IgG1, kappa, V domains shown, Chimeric IgG1/kappa) VH: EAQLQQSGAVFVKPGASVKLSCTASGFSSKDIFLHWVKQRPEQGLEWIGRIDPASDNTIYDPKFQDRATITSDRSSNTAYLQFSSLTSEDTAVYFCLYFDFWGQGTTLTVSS VL: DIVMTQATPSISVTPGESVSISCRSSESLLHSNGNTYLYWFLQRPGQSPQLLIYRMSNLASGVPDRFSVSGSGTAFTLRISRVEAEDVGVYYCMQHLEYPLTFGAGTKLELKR ... 0.05
S009-F1.35.24 human-murine chimeric antibody (antibody, human IgG1, kappa, V domains shown, Chimeric IgG1/kappa) VH: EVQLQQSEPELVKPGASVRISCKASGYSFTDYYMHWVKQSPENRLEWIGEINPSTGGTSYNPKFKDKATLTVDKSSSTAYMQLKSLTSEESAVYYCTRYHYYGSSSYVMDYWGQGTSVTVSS VL: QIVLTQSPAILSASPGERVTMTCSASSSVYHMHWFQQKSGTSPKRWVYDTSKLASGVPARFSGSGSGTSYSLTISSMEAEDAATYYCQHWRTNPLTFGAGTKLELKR ... 0.04
S009-F1.59.1 human-murine chimeric antibody (antibody, human IgG1, kappa, V domains shown, Chimeric IgG1/kappa) VH: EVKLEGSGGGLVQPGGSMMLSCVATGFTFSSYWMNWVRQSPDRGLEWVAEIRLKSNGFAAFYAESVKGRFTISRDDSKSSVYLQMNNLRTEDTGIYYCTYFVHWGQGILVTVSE VL: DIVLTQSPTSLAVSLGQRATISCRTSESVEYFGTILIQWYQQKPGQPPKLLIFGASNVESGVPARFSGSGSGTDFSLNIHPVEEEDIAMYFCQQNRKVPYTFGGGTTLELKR ... 0.05
S009-F1.56.1 human-murine chimeric antibody (antibody, human IgG1, kappa, V domains shown, Chimeric IgG1/kappa) VH: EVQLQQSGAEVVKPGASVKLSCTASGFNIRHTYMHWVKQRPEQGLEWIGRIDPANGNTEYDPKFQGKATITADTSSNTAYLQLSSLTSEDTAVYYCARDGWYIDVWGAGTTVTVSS VL: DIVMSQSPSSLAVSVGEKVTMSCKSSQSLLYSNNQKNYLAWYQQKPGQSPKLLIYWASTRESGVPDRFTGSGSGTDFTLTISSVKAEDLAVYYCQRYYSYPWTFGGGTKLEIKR ... 0.05
S009-F1.2.12 human-murine chimeric antibody (antibody, human IgG1, kappa, V domains shown, Chimeric IgG1/kappa) VH: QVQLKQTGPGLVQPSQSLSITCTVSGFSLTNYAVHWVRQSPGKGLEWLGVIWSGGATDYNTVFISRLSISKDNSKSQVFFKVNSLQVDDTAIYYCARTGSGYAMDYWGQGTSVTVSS VL: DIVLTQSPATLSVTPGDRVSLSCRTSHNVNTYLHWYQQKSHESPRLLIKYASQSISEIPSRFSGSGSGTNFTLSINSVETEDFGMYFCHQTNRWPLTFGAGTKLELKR ... 0.04
S009-F1.25.10 human-murine chimeric antibody (antibody, human IgG1, kappa, V domains shown, Chimeric IgG1/kappa) VH: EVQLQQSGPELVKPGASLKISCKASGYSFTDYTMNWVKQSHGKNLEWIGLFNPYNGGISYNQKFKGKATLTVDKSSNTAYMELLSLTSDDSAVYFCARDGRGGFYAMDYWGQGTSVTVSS VL: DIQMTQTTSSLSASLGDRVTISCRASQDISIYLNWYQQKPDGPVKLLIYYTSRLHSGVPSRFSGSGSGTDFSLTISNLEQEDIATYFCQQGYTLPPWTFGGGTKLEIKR ... 0.05

Now for a further binder.
In: Endpoint output: OD450 of S009-F1.62.9 human-murine chimeric antibody (antibody, human IgG1, kappa, V domains shown, Chimeric IgG1/kappa) VH: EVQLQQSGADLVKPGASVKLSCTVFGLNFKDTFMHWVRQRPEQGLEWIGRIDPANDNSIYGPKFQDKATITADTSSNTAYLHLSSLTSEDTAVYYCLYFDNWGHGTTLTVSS VL: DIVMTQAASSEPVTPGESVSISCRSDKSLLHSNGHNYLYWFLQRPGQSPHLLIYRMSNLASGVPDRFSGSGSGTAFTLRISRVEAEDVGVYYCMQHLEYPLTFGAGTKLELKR . Value?
Out: 0.05
